target: WT RBD (SARS-CoV-2 Wuhan-Hu-1 spike receptor binding domain) (SARS-CoV-2 (Wuhan-Hu-1), UniProt P0DTC2); assay: BLI; details: both partners purified
quantity.measured: Kd (nM)
Your answer should be a plain number; it is taken to be in nM.

Kd reading for C3083 (antibody, V domains shown, source: 293-6E cells, transfected, purified (Protein G Sepharose)) VH: EVQLVESGGGFVRPGGSLRLSCSTSGFTFSMFAMHWVRQAPGKGLEYVSGVSSNGLNTYYADSVKGRLVISRDDSKNTLYLQMTGLRVEDTAVYYCVKDDDFGDPGYGYHLDYWGQGTLVTVSS VL: QSALTQPASVSGSPGQSITISCTGTSSDVGGYNYVSWFQQHPGKAPKLVIFEVSNRPSGISDRFSGSKSGNTASLTISELQAEDEADYYCSSYTSRIPIIFGTGTKVTV : 0.201
